molecular target: SAM VI-Riboswitch aptamer domain; test: MST off-target counter screen, SAM VI-riboswitch aptamer domain; settings: positive control; read-out: KD of positive control binding to SAM-VI-riboswitch (MST)
OBSERVED PROPERTY: Kd

COMPOUND	OBSERVED PROPERTY	RESULT
C[S+](CC[C@H](N)C(=O)[O-])C[C@H]1O[C@@H](n2cnc3c(N)ncnc32)[C@H](O)[C@@H]1O (stereo partly shown) [SAM, reference compound]	Kd	0.772 µM
